Tested on: P388
assayExplanation: Cytotoxicity against mouse P388 cells after 3 days by MTT assay
Type: functional
experimentalConditions: P388, 72 h, read-out: ED50 (the source's name)
measureName: EC50 (mg/L)
Express your answer in mg/L, writing the number without its unit.

Could you please provide reported EC50 for `COc1cc(/C=C/C(=O)N2CCC=CC2=O)cc(OC)c1OC` ? Thanks!
0.9

Could you please provide reported EC50 for COc1cc(C2C(C(=O)N3CCC=CC3=O)[C@H](c3cc(OC)c(OC)c(OC)c3)[C@@H]2C(=O)N2CCC=CC2=O)cc(OC)c1OC (some centres undefined) ? Thanks!
3.06

Could you please provide reported EC50 for `COc1cc(CCC(=O)N2CCC=CC2=O)cc2c1OCO2` ? Thanks!
2.21

Now turn to the next compound.
Could you please provide reported EC50 for `COc1cc(/C=C/C(=O)N2CCC=CC2=O)cc2c1OCO2` ? Thanks!
0.43

###

Test system: A549
assayExplanation: Cytotoxicity against human A549 cells after 6 days by MTT assay
Format: functional
experimentalConditions: A549, 144 h, read-out: ED50 (the source's name)
# key: entry, value: EC50

Consider the worked cases shown below.
GET EC50 | system: A549 | item: COc1cc(C2C(C(=O)N3CCC=CC3=O)[C@H](c3cc(OC)c(OC)c(OC)c3)[C@@H]2C(=O)N2CCC=CC2=O)cc(OC)c1OC (some centres undefined)
2.21 µg/mL

GET EC50 | system: A549 | item: `COc1cc(/C=C/C(=O)N2CCC=CC2=O)cc2c1OCO2`
2.57 µg/mL

GET EC50 | system: A549 | item: `COc1cc(CCC(=O)N2CCC=CC2=O)cc2c1OCO2`
5.76 µg/mL

Now turn to the next compound.
GET EC50 | system: A549 | item: `COc1cc(/C=C/C(=O)N2CCC=CC2=O)cc(OC)c1OC`
0.6 µg/mL
